Assign increase in LDH versus normoxemia culture to each entry below.
# System: cortical neurons
# testMethodNotes: Hypoxia and reperfusion of cortical neurons (viability, LDH)
# experimentalConditions: 10-minutes ischemia
Please give a number only; it is taken to be in fold.

// returns reported increase in LDH versus normoxemia culture for input CCCCCCCC/C=C\CCCCCCCC(=O)O[C@H](COC(=O)CCCCCCCCCCCCCCCCC)COP(=O)([O-])OCC[N+](C)(C)C [SOPC, 1-Stearoyl-2-oleoyl-sn-glycero-3-PC, reference compound]
280

Request: "CCCCCCCC/C=C(\CCCCCCCC(=O)O[C@H](COC(=O)CCCCCCCCCCCCCCCCC)COP(=O)([O-])OCC[N+](C)(C)C)[N+](=O)[O-]"
120

Subsequent entry: CCCCC/C=C\C/C=C\CCCCCCCC(=O)O[C@H](COC(=O)CCCCCCCCCCCCCCC)COP(=O)([O-])OCC[N+](C)(C)C [PLPC, 1-Palmitoyl-2-linoleoyl-sn-glycero-3-PC, reference compound]
380

// next record "CCCCC/C=C\CC=C(CCCCCCCC(=O)O[C@H](COC(=O)CCCCCCCCCCCCCCC)COP(=O)([O-])OCC[N+](C)(C)C)[N+](=O)[O-]"
130

The measurements presented in this section are drawn from patent US20140099354A1.
